Reference source: paper PMC11093223

TEST_SYSTEM: T1, Mouse TBC1D23 (559-684), C-terminal domain (mouse, UniProt Q8K0F1 559-684)
T1 construct: TBC1D23, mouse, UniProt Q8K0F1 (684 residues), C-terminal domain, residues 559-684; also called TBC1D23 C-terminal domain; TBC1D23 full length C-terminal domain; source: E. coli BL21 plyS, purified (glutathione-Sepharose, thrombin cleavage, Superdex 200 gel filtration)
T1 sequence (Q8K0F1 559-684): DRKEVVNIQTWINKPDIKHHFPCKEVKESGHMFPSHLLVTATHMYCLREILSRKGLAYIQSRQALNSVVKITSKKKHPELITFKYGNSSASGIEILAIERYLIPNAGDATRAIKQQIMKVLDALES
ASSAY_PROTOCOL: ITC; peptide (0.8 to 5 mM) titrated into 100 uM TBC1D23 C-terminal domain, 20 injections of 2.4 ul; 20°C; 100 mM NaCl, 100 mM tris pH 7.4, 1 mM TCEP; mean of three runs
EXPERIMENTAL_CONDITIONS: both partners purified
Provide the recorded pKd for the entries that follow.
Answers are plain numbers, as −log10 of the molar value.

These recorded examples may help you get a feel for the data.
>>> observed("DDNSLYHRGFTED (syntaxin-16, human, residues 209-221 with T212S) [syntaxin-16 peptide T212S]")
4.52
>>> observed("DDNTLWHRGFTED (syntaxin-16, human, residues 209-221 with Y214W) [syntaxin-16 peptide Y214W]")
5.25
>>> observed("DDNTFYHRGFTED (syntaxin-16, human, residues 209-221 with L213F) [syntaxin-16 peptide L213F]")
3.82

Record summary for DDNTLFHRGFTED (syntaxin-16, human, residues 209-221 with Y214F) [syntaxin-16 peptide Y214F] : reported pKd = 4.81
